Assay: soluble on expression in E. coli; label from the status in PepcDB or PDB records

- RESIDUE_SEQUENCE: "MGHHHHHHSHMKNYKAIGKIGEGTFSEVMKMQSLRDGNYYACKQMKQRFESIEQVNNLREIQALRRLNPHPNILMLHEVVFDRKSGSLALICELMDMNIYELIRGRRYPLSEKKIMHYMYQLCKSLDHIHRNGIFHRDVKPENILIKQDVLKLGDFGSCRSVYSKQPYTEYISTRWYRAPECLLTDGFYTYKMDLWSAGCVFYEIASLQPLFPGVNELDQISKIHDVIGTPAQKILTKFKQSRAMNFDFPFKKGSGIPLLTTNLSPQCLSLLHAMVAYDPDERIAAHQALQHPYFQEQRKTEKRAL"
  soluble on expression in E. coli: "not soluble"
- RESIDUE_SEQUENCE: "LPSSPPAEEAIIDWPVALRQSANKEDLAKEMLGMLVDYLREVETVVNTALEDEEYPASDLLHHIHKLHGSCSYSGVPRLRKICASLEQALRNGASIDELEPELFELQDEMAKVLEASRDYLN"
  soluble on expression in E. coli: "not soluble"

* * *

Assay: soluble on expression in E. coli; label from the status in PepcDB or PDB records

- RESIDUE_SEQUENCE: "MDVNTTYTKELSIIVPIYNEERELPELVRRLSAAAASITEDYELIFVNDGSRDGSMELLRSLCKGDDRFFYINLSRNFGHQIAVSAGLDHVRGKATVIIDGDLQDPPELIPELYAKYREGYEVVYAQRKHREGETWFKKATAKGFYRTMRKITSIDMPLDTGDFRLIDRKIVQCLREMPEQNKFLRGQIAWMGFRQTGVQFDRDERKYGQTNYPLRKMLALAIDGITGFSSRPLEWVAQ"
  soluble on expression in E. coli: "not soluble"
- RESIDUE_SEQUENCE: "MGSDKIHHHHHHMYPECAKLPTFLRTVHEDVDAQARSLFTLDQNYMQVDPGPFCGTMATCDFGTGLVVSFEQVNKRVLQVAAVPFGTAQVALILEAGEPTTHNQVGRIRNAGVVMAPGAEARLSAGANTRVCLISIAGEAADHLRSRYNFDPDSLRADIFLDPAETTALRGLVTEAYQRFSSPQADRSFDQASAAAFHEAVLSVTAWTCASSARTQNQHRVAGDCRTTALTAAIRLIDHNLHNPVTVEWLARTLGVSRRSLEQAFGEAFDTSPGRYIKVLRLNSLRQMLRDPSNAEVSIGDLAARCGLWHQGRLASEFRELFGVLPSEARG"
  soluble on expression in E. coli: "not soluble"

* * *

Test: soluble on expression in E. coli; label from the status in PepcDB or PDB records
METRIC_NAME: soluble on expression in E. coli

- RESIDUE_SEQUENCE: "FSDIASLQRFIKLNQSDWLFEMLATERFTSYFQPIVSIKDTSQIFGYESLLRGLDEEGNLMLPTPIMELATEAGLIPQLDQIARLSAITEFSRYKVSGHIFINFAPTSLYDPAFCLSSSVEAIDTAEISHDRVVFEVVESDNPQDLTHLKAVLKYYRDAGFLVALDDLGSGYSSLNLLHQLRPDFIKLDMELIRDVHQDLYKASITEKLLEITQKLNIQTVAEGIECIEELNWLRERGANLAQGYLIAKP"
  EXPERIMENTAL_RESULT: "not soluble"
- RESIDUE_SEQUENCE: "MLQPPKIVAELSANHNQDLNLAKESLHAIKESGADFVKLQTYTPSCMTLNSKEDPFIIQGTLWDKENLYELYQKASTPLEWHAELFELARKLDLGIFSSPFSSQALELLESLNCPMYKIASFEIVDLDLIEKAARTQKPIILSSGIATHTELQDAISLCRRVNNFDITLLKCVSAYPSKIEDANLLSMVKLGEIFGVKFGLSDHTIGSLCPILATTLGASMIEKHFILNKSLQTPDSAFSMDFNGFKSMVEAIKQSVLALGEEEPRINPKTLEKRRFFARSLFVIKDIQKGEALTENNIKALRPNLGLHPKFYKEILGQKASKFLKANTPLSADDIERSLLEHHHHHH"
  EXPERIMENTAL_RESULT: "not soluble"

* * *

Assay: soluble on expression in E. coli; label from the status in PepcDB or PDB records

- RESIDUE_SEQUENCE: "MHVIDLSYFVKIYRSKNKHISVNFLRHLHRAGDLHLSGTTRCIYEDVIMKKCLTLLIATVLSGISLTAYAAQPMSNLDSGQLRPAGTVSATGASNLSDLEDKLAEKAREQGAKGYVINSAGGNDQMFGTATIYK"
  soluble on expression in E. coli: "soluble"
- RESIDUE_SEQUENCE: "MGSDKIHHHHHHVLDKIELFILDMDGTFYLDDSLLPGSLEFLETLKEKNKRFVFFTNNSSLGAQDYVRKLRNMGVDVPDDAVVTSGEITAEHMLKRFGRCRIFLLGTPQLKKVFEAYGHVIDEENPDFVVLGFDKTLTYERLKKACILLRKGKFYIATHPDINCPSKEGPVPDAGSIMAAIEASTGRKPDLIAGKPNPLVVDVISEKFGVPKERMAMVGDRLYTDVKLGKNAGIVSILVLTGETTPEDLERAETKPDFVFKNLGELAKAVQ"
  soluble on expression in E. coli: "soluble"

* * *

Test: soluble on expression in E. coli; label from the status in PepcDB or PDB records

- RESIDUE_SEQUENCE: "MGSDKIHHHHHHMRFPMMELDEKIYRFFENRGRDVTVEYLNLGLGYTAVTTSDGGIGIAYTCFGAKESCSFMNSYYDFEGRPAVELLEKIKSTHPLERTMALALVNALNYEYALSLPEDKENRALFESFGIGEKTRVAMVGYFAPIAGMLGKMGALLEVIDISKKIGHQADFYDRLENWAQVAFITSTSILNSTTEDILRHAGKGVKTVMLGPSTPMIGEVFSHLPVHMLAGTVPLEKEKVLKAIRHGFGTREIQRFSRKSYLALF"
  soluble on expression in E. coli: "not soluble"
- RESIDUE_SEQUENCE: "MSLTHVIWDMGETLNTVPNTRYDHHPLDTYPEVVLRKNAKETLEKVKQLGFKQAILSNTATSDTEVIKRVLTNFGIIDYFDFIYASNSELQPGKMEKPDKTIFDFTLNALQIDKTEAVMVGNTFESDIIGANRAGIHAIWLQNPEVCLQDERLPLVAPPFVIPVWDLADVPEALLLLKKISEGHHHHHH"
  soluble on expression in E. coli: "soluble"
- RESIDUE_SEQUENCE: "MTKAADDNIIVGLDIGTATVSALVGEILPDGQINIIGAGSSPSRGMDKGGVNDLESVVKSVQRAIDQAELMAECQISRVFISLSGKHIASRIEKGMGTISDEEVSQEDMDRAIHTAKSIKIGDEQ"
  soluble on expression in E. coli: "not soluble"
- RESIDUE_SEQUENCE: "MVALFQHSPYWQADGYGHSHRLKCQHFKQHRQYNDKLEISSNLGPQFNALLNILLNIVHPTLSHDTRRSKGLKIEGLLQSRELGNSWTVTMCIWVLKALQSSAPNKPLDWLDPMPCFQNLLARGTP"
  soluble on expression in E. coli: "soluble"

* * *

Assay: soluble on expression in E. coli; label from the status in PepcDB or PDB records
METRIC_NAME: soluble on expression in E. coli

Example entries begin here.
- RESIDUE_SEQUENCE: "ALESARAGYWEWNVENGTILIDRQWAVISGYNSADFDMLTMEQWRELCHPADLGVVTKSIEELLDGSMERLELELRVRHKNGEWIRVLDCGKVTGRSKNGKPSCLTGSRQALASLHDK"
  soluble on expression in E. coli: "soluble"
- RESIDUE_SEQUENCE: "MSLKFVGLVGSNAEQSYNRKLLEYIRKQFKLKFELELLEIDEVPMFNQDQSWKDSFQLRLLYNKIIRADGVIIATPEHNHTITAALKSVLEWLSCEVHPFENKPVMIVGASYYDQGTSRAQVHLRKILDAPGVNAYTLPGNEFLLGKAKEAFDDNGNIINQGTVDFLETCLDNFMSYVGVVSKLQKPKPIEPEDLDCNHPIATTITEVDPDDPEWVEKVAEITGAVSGDAYVKLDHGILTVDQINMFLKAMPFELTYADDNNQFLYYNNAHQDPDTMYAKRIPEQSGNRLSTVHNSLPAGRMKNVEWVIGTLRNGNQEYVRTLIPSPNPAVLNTHNYQAMYYDDGSFAGINEIVFNFKPWLDWYLQTTGQRLVGGEGHHHHHH"
  soluble on expression in E. coli: "soluble"
- RESIDUE_SEQUENCE: "MKKSRYTETQIVKILKEVEAGRLVKEICREYGISDATYYNWKAKYGGMESSDIKRLKDLEEENRRLKQMYAELSLDHKILKDIVEKKLLEHHHHHH"
  soluble on expression in E. coli: "not soluble"
- RESIDUE_SEQUENCE: "MGSDKIHHHHHHMSLEAPDLLRIRALPLFEAVNDGAFDRLMRGAFLQRFPRGSQLTTQGQPDNFLFVLLEGAIELEGSSSDRESTLALLWPSASLCLASIVLDGPSLMTARTTKGSLILMVPGDAFRQALEEDAGLGRAVAEELAGCFSGAVRSLKNNKLRTARERLVSYLLAQHQRQGGGAVVKLPCRKRVLASLLGMTPENLSRAFASLGPHGVEIDGSTVTLREPEGLAQLARPDPMIDNPIGESFSQAERERRRGGRTAIAAH"
  soluble on expression in E. coli: "not soluble"
- RESIDUE_SEQUENCE: "GPGSMSFKPTISVHATPQELSAAGCRKIVEIIETSGSQQWPLSIALAGGSTPKMTYARLHDEHLNLLREKRALRFFMGDERMVPADSTDSNYNMAREVLLHDIPDDLVFPFDTSAVTPSAEATSADAMRVAEAYGKQLASLLPLKSVGEAGAKVPVFDVVLLGLGSDGHTASIFPGSQAEKETDGKVVVSVGFPSETMKPKVWRVTLSPATIMQARNVIVLATGAEKKWVVDGILADTAHKAPVARFLRGCEGNVSFLLDKEIAENLAKF"
  soluble on expression in E. coli: "soluble"
- RESIDUE_SEQUENCE: "MGSDKIHHHHHHMAVELRYDEEAVFLRRVNRFVVEVKSSRGVVRCHLMDTGRIDHLASPGRRGVLIAWLNRLGGKTVCRAQAFKTAGGVVAVVDSRVPNRLFAEAAPMVVGGDASIEAEREVFGSRLDFLISTGRGLWAVEVKGVNLSLDGVGLFPNAPSARAVKHLEVLARLAREGVKPLMAFVALRPDIRVFAPNYRVDRRFASLACTLLRRGLVGMVGIRVSIDLEPGVVRIRPVATAPVQCPPLQPGR"
  soluble on expression in E. coli: "not soluble"

q: Query: soluble on expression in E. coli; subject: `MSSKSIHEKRAIAKYAASLIEDGDCIFVDAGTTTYELIDYLEGKDILVVSNGLSHIDTLIQKNIKCYVIGGNIKISTKAITGCDALMCLSKFRFDKCFIGANGVHHTYGLTTPDTEEAILKECAINNSRKAYVLADDSKFGEISTIKFSDINKCVIITNEKPKDNTYDKKTDIKVVDILEHHHHHH`
a: soluble

q: Query: soluble on expression in E. coli; subject: `MTTQITAEDVEAYLGTRENSPTMSDTVDAAVDLVESWKSTPQEKWPPRWRRGCIMLAARMDRRRNSPAGVDTMGEIGVVYVSRKDPDIAQLLEIGDFSKPIAR`
a: not soluble
